Target: h-GABA-A α2β2γ1 (Homo sapiens (Human), UniProt P47869+Q8N1C3)
Assay: Two-electrode voltage clamp electrophysiology in Xenopus oocytes expressing GABAA receptors
Assay type: cell-based
Conditions: % modulation of GABA EC20 = 100*(Fold increase−1), compound at about 30-fold its Ki α2β2γ1
Description: Xenopus Oocytes Preparation Xenopus laevis oocytes at maturation stages V-VI were used for the expression of cloned mRNA encoding GABAA receptor subunits. Oocytes ready for RNA micro-injection were bought from Ecocyte, Castrop-Rauxel, Germany and stored in modified Barth's medium (composition in mM: NaCl 88, KCl 1, NaHCO3 2.4, HEPES 10, MgSO4 0.82, CaNO3 0.33, CaCl2 0.33, pH=7.5) at 20° C. until the experiment. […]
Experimental Readout: Efficacy (GABA) % (%)
Please state the figure in %; there is no need to write the unit.

// below: answered compounds
Compound: C[C@@H]1N=C(c2c(F)cccc2F)c2c(sc3c2COCCO3)-n2nc(C(=O)N3CC(OC(C)(C)C)C3)nc21
Value Unit: %
Efficacy (GABA) %: 79
--
Compound: Cc1nc2n(n1)-c1sc3c(c1C(c1c(F)cccc1F)=N[C@H]2C)COC[C@H](C)O3
Value Unit: %
Efficacy (GABA) %: 150
--
Compound: Cc1nnc2n1-c1sc3c(c1C(c1c(F)cccc1F)=N[C@H]2C)CCCC[C@H]3F (single isomer, unassigned)
Value Unit: %
Efficacy (GABA) %: 88
--
Compound: C[C@@H]1N=C(c2c(F)cccc2F)c2c(sc3c2COCCO3)-n2nc(C(=O)NCCF)nc21
Value Unit: %
Efficacy (GABA) %: 99

Recorded Efficacy (GABA) % of C[C@@H]1N=C(c2c(F)cccc2F)c2c(sc3c2COCCO3)-n2nc(C(=O)NC[C@](C)(O)C(F)(F)F)nc21 , please. 89

====

Target: human GABAA α1β3γ2 receptor (Homo sapiens (Human), UniProt P14867+P18507)
Experiment: Radioligand binding assay, competition for [3H]Flumazenil, γ2-containing GABAA subtypes
Settings: Ki α1β3γ2 (nM)/Ki α2β2γ1 (nM), Table 1
Protocol: The affinity of compounds at GABAA γ2 subunit-containing receptors was measured by competition for [^3H]Flumazenil (81.1 Ci/mmol; Roche) binding to HEK293F cells expressing human (transiently transfected) receptors of composition α1β3γ2. Harvested pellets from HEK293F cells expressing the different GABAA γ2 receptor subtypes were resuspended in Mannitol Buffer pH 7,2-7,4 and processed as described above for the cells expressing the GABAA γ1 subunit-containing receptors. […]
Class assignment keyed on γ2/γ1 Selectivity Ratio, ranges bin A: < 100; bin B: ≥ 100 and < 200; bin C: ≥ 200

# example entries with known answers
Molecule: Cc1nc2n(n1)-c1sc3c(c1C(c1c(F)cccc1F)=N[C@H]2C)COCCC3 [Example 57]
Class Label: bin C
--
Molecule: C[C@@H]1N=C(c2c(F)cccc2F)c2c(sc3c2COCCC3)-n2cc(C(=O)NCC3(O)CC3)nc21 [Example 68]
Class Label: bin B
--
Molecule: C[C@@H]1N=C(c2c(F)cccc2F)c2c(sc3c2COCCO3)-n2nc(C(=O)NCC(C)(C)O)nc21 [Example 45]
Class Label: bin C
--
Molecule: [2H]C1([2H])OCc2c(sc3c2C(c2c(F)cccc2F)=N[C@@H](C)c2nc(C(=O)N4CC(OCC)C4)nn2-3)OC1([2H])[2H] [Example 32]
Class Label: bin C
--
Molecule: Cc1nnc2n1-c1sc3c(c1C(c1c(F)cccc1F)=N[C@H]2C)CCCCC3 [Example 2]
Class Label: bin B
--
Molecule: Cc1cn2c(nc1=O)[C@H](C)N=C(c1c(F)cccc1F)c1c-2sc2c1CCCCC2 [Example 26]
Class Label: bin B
--
Molecule: Cc1nnc2n1-c1sc3c(c1C(c1c(F)cccc1F)=N[C@H]2C)CCC[C@H](F)C3 (single isomer, unassigned) [Example 17]
Class Label: bin B
--
Molecule: C[C@@H]1N=C(c2c(F)cccc2F)c2c(sc3c2COCCO3)-n2nc(C(=O)N3CCC3)nc21 [Example 22]
Class Label: bin C
--
Molecule: CC(C)c1nnc2n1-c1sc3c(c1C(c1c(F)cccc1F)=N[C@H]2C)COCCO3 [Example 44]
Class Label: bin C
--
Molecule: Cc1nnc2n1-c1sc3c(c1C(c1c(F)cccc1F)=N[C@H]2C)COCC[C@@H]3F (single isomer, unassigned) [Example 55]
Class Label: bin A

Attention now turns to another entry.
Into which bin does this molecule go? CCOC1CN(C(=O)c2nc3n(n2)-c2sc4c(c2C(c2c(F)cccc2F)=N[C@H]3C)COCCO4)C1 [Example 31] bin C

====

Target: human GABAA α1β3γ2 receptor (Homo sapiens (Human), UniProt P14867+P18507)
Test: Radioligand binding assay, competition for [3H]Flumazenil, γ2-containing GABAA subtypes
Conditions: HEK293F cells, [3H]Flumazenil 1 nM, Table 1; read-out: Ki h-GABAA α1β3γ2
Recorded Ki for the following compounds
Provide only the numeric value, understood in µM.

Sample records with Ki:
Chem Smiles: C[C@@H]1N=C(c2c(F)cccc2F)c2c(sc3c2COCCC3)-n2nc(C(=O)N[C@H]3C[C@@H](O)C3)nc21
Assay System: human GABAA α1β3γ2 receptor (Homo sapiens (Human), UniProt P14867+P18507)
Value Unit: µM
Ki: 7.87
//
Chem Smiles: C[C@@H]1N=C(c2c(F)cccc2F)c2c(sc3c2COCCC3)-n2nc(C(=O)N[C@H]3C[C@H](O)C3)nc21
Assay System: human GABAA α1β3γ2 receptor (Homo sapiens (Human), UniProt P14867+P18507)
Value Unit: µM
Ki: 4.43

Notebook entry, human GABAA α1β3γ2 receptor (Homo sapiens (Human), UniProt P14867+P18507) assay: Ki of C[C@@H]1N=C(c2c(F)cccc2F)c2c(sc3c2COCCO3)-n2nc(C(=O)NC[C@@](C)(O)C(F)(F)F)nc21 = ? 4.32

What measured Ki is associated with C[C@@H]1N=C(c2c(F)cccc2F)c2c(sc3c2COCCO3)-n2cc(C(=O)NCC3(O)CC3)nc21 on human GABAA α1β3γ2 receptor (Homo sapiens (Human), UniProt P14867+P18507)? 1.24

====

Target: human GABAA α5β2γ1 receptor (Homo sapiens (Human), UniProt P31644+Q8N1C3)
Assay: Radioligand binding assay, competition for [3H]RO7239181, γ1-containing GABAA subtypes
Experimental Readout: pKi
Reminder that pKi means the negative base-10 logarithm of the concentration expressed in mol/L.

Some compounds with recorded pKi:
Compound: C[C@@H]1N=C(c2c(F)cccc2F)c2c(sc3c2COCCO3)-n2c(C3CC3)nnc21
pKi: 8.35

Compound: Cc1nnc2n1-c1sc3c(c1C(c1c(F)cccc1F)=N[C@H]2C)CCC[C@@H](F)C3 (single isomer, unassigned)
pKi: 7.87

Compound: Cc1nnc2n1-c1sc3c(c1C(c1c(F)cccc1F)=N[C@H]2C)CC[C@H](F)CC3 (single isomer, unassigned)
pKi: 8.31

Compound: C[C@@H]1N=C(c2c(F)cccc2F)c2c(sc3c2COCCO3)-n2nc(C(=O)NC[C@](C)(O)C(F)(F)F)nc21
pKi: 8.35

Compound: C[C@@H]1N=C(c2c(F)cccc2F)c2c(sc3c2CCCCC3)-n2c(C3CC3)nnc21
pKi: 8.43

Could you tell me which pKi is on file for C[C@@H]1N=C(c2c(F)cccc2F)c2c(sc3c2COCCO3)-n2cc(C(=O)NCC3(O)CC3)nc21 ? 8.77

What value of pKi has been reported for the following compound? C[C@@H]1N=C(c2c(F)cccc2F)c2c(sc3c2CCCCC3)-n2c1n[nH]c2=O 8.43

So what's the measured pKi for this one? C[C@@H]1N=C(c2c(F)cccc2F)c2c(sc3c2COCCC3)-n2nc(C(=O)N[C@H]3C[C@H](O)C3)nc21 8.09

Find the recorded pKi belonging to CCc1nc2n(n1)-c1sc3c(c1C(c1c(F)cccc1F)=N[C@H]2C)COC[C@H](C)O3 and report it. 8.48

So what does the record say about pKi for C[C@@H]1N=C(c2c(F)cccc2F)c2c(sc3c2COCCC3)-n2cc(C(=O)NCC(C)(C)O)nc21 ? 8.13

====

Biological target: human GABAA α1β3γ2 receptor (Homo sapiens (Human), UniProt P14867+P18507)
Experiment: Radioligand binding assay, competition for [3H]Flumazenil, γ2-containing GABAA subtypes
Conditions: Ki α1β3γ2 (nM)/Ki α2β2γ1 (nM), Table 1
Listed next: entries and their corresponding γ2/γ1 Selectivity Ratio.
The answer should be a number; do not append a unit.

# example entries with known answers
Chem Smiles: Cc1nc2n(n1)-c1sc3c(c1C(c1c(F)cccc1F)=N[C@H]2C)CCCCC3
γ2/γ1 Selectivity Ratio: 101.9
--
Chem Smiles: C[C@@H]1N=C(c2c(F)cccc2F)c2c(sc3c2COCCC3)-n2cc(C(=O)NCC(C)(C)O)nc21
γ2/γ1 Selectivity Ratio: 84.5
--
Chem Smiles: C[C@@H]1N=C(c2c(F)cccc2F)c2c(sc3c2COCCC3)-n2nc(C(=O)NC[C@](C)(O)C(F)(F)F)nc21
γ2/γ1 Selectivity Ratio: 59.7
--
Chem Smiles: C[C@@H]1N=C(c2c(F)cccc2F)c2c(sc3c2COC[C@H](C)O3)-n2nc(C(=O)N3CC(F)C3)nc21
γ2/γ1 Selectivity Ratio: 568.5

Under human GABAA α1β3γ2 receptor (Homo sapiens (Human), UniProt P14867+P18507): γ2/γ1 Selectivity Ratio value of C[C@@H]1N=C(c2c(F)cccc2F)c2c(sc3c2COCCO3)-n2nc(C(=O)NCCF)nc21 ? 75.4

Which γ2/γ1 Selectivity Ratio is reported with human GABAA α1β3γ2 receptor (Homo sapiens (Human), UniProt P14867+P18507) for this entry: C[C@@H]1N=C(c2c(F)cccc2F)c2c(sc3c2COCCO3)-n2nc(C(=O)N3CC(OC(C)(C)C)C3)nc21 ? 366.9

What reported γ2/γ1 Selectivity Ratio corresponds to Cc1nnc2n1-c1sc3c(c1C(c1c(F)cccc1Cl)=N[C@H]2C)COCCC3 on human GABAA α1β3γ2 receptor (Homo sapiens (Human), UniProt P14867+P18507)? 122.4

Provide value of γ2/γ1 Selectivity Ratio for this record tested with human GABAA α1β3γ2 receptor (Homo sapiens (Human), UniProt P14867+P18507): Cc1nnc2n1-c1sc3c(c1C(c1c(F)cccc1F)=N[C@H]2C)COCCC3 100.3

Recall the recorded γ2/γ1 Selectivity Ratio for Cc1nnc2n1-c1sc3c(c1C(c1c(F)cccc1F)=NC2)CCCCC3 with human GABAA α1β3γ2 receptor (Homo sapiens (Human), UniProt P14867+P18507) and state it. 49.6

The measurements presented in this section are drawn from patent US20240294543A1.
